System: MOLM14
Assay: cell viability relative to vehicle control; higher = less cytotoxic;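 note: after 48 h exposure read by CellTiter-Glo luminescence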
Conditions: 10 µM; SRSF2 genotype: SRSF2 P95H/wt
Value kind: cell viability (%)

[[record]]
compound = "C[C@@H]1CC(=O)Nc2cccc(-c3ccc4c(c3)c(-c3cnn(C)c3)nn4C)c2N1"
value_kind = "cell viability"
scale_unit = "%"
numeric_value = 32.5

[[record]]
compound = "O=C(O)c1ccc(NC(=O)[C@H](Cc2ccc(O)cc2)NC(=O)c2ccccc2)cc1 [bentiromide]"
value_kind = "cell viability"
scale_unit = "%"
numeric_value = 95.6

[[record]]
compound = "COC(=O)[C@H](O)[C@@H](NC(=O)c1ccccc1)c1ccccc1"
value_kind = "cell viability"
scale_unit = "%"
numeric_value = 98.1

[[record]]
compound = "CC#CC(=O)Nc1ccc2ncnc(Nc3cccc(Br)c3)c2c1"
value_kind = "cell viability"
scale_unit = "%"
numeric_value = 0.84

[[record]]
compound = "OC[C@H]1O[C@@H](Oc2c(O)cc(O)cc2/C=C/c2ccc(O)cc2)[C@H](O)[C@@H](O)[C@@H]1O [Astragalus polyphenols]"
value_kind = "cell viability"
scale_unit = "%"
numeric_value = 67.9

[[record]]
compound = "COc1ccc(-c2oc3cc(O)cc(O)c3c(=O)c2O)cc1 [kaempferide]"
value_kind = "cell viability"
scale_unit = "%"
numeric_value = 74.6

[[record]]
compound = "COc1cc(Nc2ncc(F)c(Nc3ccc4c(n3)NC(=O)C(C)(C)O4)n2)cc(OC)c1OC"
value_kind = "cell viability"
scale_unit = "%"
numeric_value = 22.3

[[record]]
compound = "Nc1ccc(S(=O)(=O)Nc2ncccn2)cc1 [Sulfadiazine]"
value_kind = "cell viability"
scale_unit = "%"
numeric_value = 103

[[record]]
compound = "OC[C@@H](O)[C@@H](O)[C@H](O)[C@H](O)CO [D-Mannitol (Osmitrol)]"
value_kind = "cell viability"
scale_unit = "%"
numeric_value = 107

[[record]]
compound = "CC(=O)OCC(=O)[C@H]1CC[C@H]2[C@@H]3CCC4=CC(=O)CC[C@]4(C)[C@H]3CC[C@]12C [Deoxycorticosterone acetate]"
value_kind = "cell viability"
scale_unit = "%"
numeric_value = 89

[[record]]
compound = "CC(=O)OCc1ccccc1 [Benzyl acetate]"
value_kind = "cell viability"
scale_unit = "%"
numeric_value = 97

[[record]]
compound = "O=C(C[S+]([O-])Cc1ccco1)NC/C=C\\COc1cc(CN2CCCCC2)ccn1 (stereo not drawn) [Lafutidine]"
value_kind = "cell viability"
scale_unit = "%"
numeric_value = 96.9

[[record]]
compound = "CC(C[N+](C)(C)C)OC(N)=O (stereo not drawn) [Bethanechol chloride]"
value_kind = "cell viability"
scale_unit = "%"
numeric_value = 108

[[record]]
compound = "Cc1cc(C)nc(SCC(=O)Nc2ncc(Cc3cccc4ccccc34)s2)n1"
value_kind = "cell viability"
scale_unit = "%"
numeric_value = 41.1

[[record]]
compound = "CCCCCCCC(=O)CCc1ccc(O)c(OC)c1 [6-Paradol]"
value_kind = "cell viability"
scale_unit = "%"
numeric_value = 94.3

[[record]]
compound = "CCOC(=O)C1=C[C@]2(CC)CCCN3CCc4c(n1c1ccccc41)[C@@H]32 [Vinpocetine (Cavinton)]"
value_kind = "cell viability"
scale_unit = "%"
numeric_value = 101

[[record]]
compound = "CCN1CCN(c2cc3c(cc2F)c(=O)c(C(=O)O)cn3C2CC2)CC1 [Enrofloxacin]"
value_kind = "cell viability"
scale_unit = "%"
numeric_value = 103

[[record]]
compound = "C#Cc1cccc(Nc2ncnc3cc(OCCOC)c(OCCOC)cc23)c1 [Erlotinib(OSI-744)]"
value_kind = "cell viability"
scale_unit = "%"
numeric_value = 79


---

Consider the following compounds and their measured cell viability readings.
Test system: K562
Experiment: cell viability relative to vehicle control; higher = less cytotoxic
Settings: 10 µM; SRSF2 genotype: SRSF2 wt/wt
Value kind: cell viability

[[record]]
compound = "CCCCC1C(=O)N(c2ccccc2)N(c2ccccc2)C1=O"
study_target = "K562"
value_kind = "cell viability"
result = "94.9%"

[[record]]
compound = "C[C@@H]1CC[C@H]2C(C)(C)[C@H]3C[C@@]12CC[C@@]3(C)O"
study_target = "K562"
value_kind = "cell viability"
result = "96.6%"

[[record]]
compound = "CC(=O)O[C@]1(C(C)=O)CC[C@H]2[C@@H]3C=C(Cl)C4=CC(=O)[C@@H]5C[C@@H]5[C@]4(C)[C@H]3CC[C@@]21C [Cyproterone acetate]"
study_target = "K562"
value_kind = "cell viability"
result = "84.7%"

[[record]]
compound = "O=C(Nc1ccc2c(O)cc(S(=O)(=O)O)cc2c1)Nc1ccc2c(O)cc(S(=O)(=O)O)cc2c1"
study_target = "K562"
value_kind = "cell viability"
result = "99.1%"

[[record]]
compound = "Oc1cc2c(cc1O)[C@@H]1c3ccc(O)c(O)c3OC[C@]1(O)C2 [Hematoxylin (Hydroxybrazilin)]"
study_target = "K562"
value_kind = "cell viability"
result = "94.1%"

[[record]]
compound = "COc1cc(Nc2c(C#N)cnc3cc(OCCCN4CCN(C)CC4)c(OC)cc23)c(Cl)cc1Cl [Bosutinib (SKI-606)]"
study_target = "K562"
value_kind = "cell viability"
result = "3.73%"

[[record]]
compound = "O=C(Nc1ccc(O)c(C(=O)O)c1)c1cccc(NC(=O)c2ccco2)c1"
study_target = "K562"
value_kind = "cell viability"
result = "99.4%"

[[record]]
compound = "COc1ccc(C[C@H](N)C(=O)N[C@H]2[C@@H](O)[C@H](n3cnc4c(N(C)C)ncnc43)O[C@@H]2CO)cc1 [Puromycin 2HCl]"
study_target = "K562"
value_kind = "cell viability"
result = "1.55%"

[[record]]
compound = "C=C[C@](C)(O)CC[C@@H]1[C@@]2(C)CCCC(C)(C)[C@@H]2CC[C@@]1(C)O"
study_target = "K562"
value_kind = "cell viability"
result = "95.6%"

[[record]]
compound = "CNc1nc(-c2ccc3c(N)n[nH]c3c2)cc(N2C[C@@H](C(=O)NC3CCCCC3)CC[C@H]2C)n1"
study_target = "K562"
value_kind = "cell viability"
result = "73.5%"

[[record]]
compound = "Oc1ccc(Nc2nc(-c3ccc(Cl)cc3)cs2)cc1"
study_target = "K562"
value_kind = "cell viability"
result = "66.4%"

[[record]]
compound = "CO[C@@H]1[C@@H](O[C@@H]2O[C@H](C)[C@@H](O[C@H]3C[C@@](C)(O)[C@@H](O)[C@H](C)O3)[C@H](N(C)C)[C@H]2O)[C@@H](CC=O)C[C@@H](C)[C@@H](O[C@H]2CC[C@H](N(C)C)[C@@H](C)O2)/C=C/C=C/C[C@@H](C)OC(=O)C[C@H]1OC(C)=O"
study_target = "K562"
value_kind = "cell viability"
result = "89.4%"

[[record]]
compound = "COc1ccc(Cl)cc1C(=O)NCCc1ccc(S(=O)(=O)NC(=O)NC2CCCCC2)cc1 [Glyburide (Glibenclamide)]"
study_target = "K562"
value_kind = "cell viability"
result = "110%"

[[record]]
compound = "COc1ccc(-n2c(SCCCN3C(=O)c4cccc5cccc(c45)C3=O)nnc2-c2ccncc2)cc1"
study_target = "K562"
value_kind = "cell viability"
result = "88.4%"

[[record]]
compound = "CC(C)CCn1c(CN2CCN(C(=O)C3CC3)CC2)nc2c1c(=O)n(C)c(=O)n2C"
study_target = "K562"
value_kind = "cell viability"
result = "112%"


---

Tested on: MARIMO
Assay: cell viability relative to vehicle control; higher = less cytotoxic
Conditions: 10 µM; SRSF2 genotype: SRSF2 P95H/wt
Structures can show the parent of a compound that is named as a salt.
Consider the following molecules and their measured cell viability readings.
Value kind: cell viability (%)

[[record]]
molecule = "O=c1c2ccccc2oc2ccccc12 [Xanthone (Genicide)]"
numeric_value = 96.5

[[record]]
molecule = "CC(C)[N+]1(C)[C@@H]2CC[C@H]1C[C@@H](OC(=O)C(CO)c1ccccc1)C2 (stereo partly specified) [Ipratropium bromide]"
numeric_value = 99.5

[[record]]
molecule = "Cc1nc(C#Cc2ccnc(Cl)c2)c(C)n1-c1ccc(OC(F)(F)F)cc1"
numeric_value = 82.7

[[record]]
molecule = "N#Cc1c(Oc2ccc(F)c(NC(=O)Cc3cccc(C(F)(F)F)c3)c2)ccc2nc(NC(=O)C3CC3)sc12"
numeric_value = 40.9

[[record]]
molecule = "O=C(O)c1ccc(C=C2SC(=S)N(c3cccc(C(F)(F)F)c3)C2=O)cc1"
numeric_value = 94.3

[[record]]
molecule = "Cc1onc(-c2ccccc2Cl)c1C(=O)N[C@@H]1C(=O)N2[C@@H]1SC(C)(C)[C@@H]2C(=O)O [Cloxacillin sodium]"
numeric_value = 102

[[record]]
molecule = "C[C@]12CCC(=O)C=C1CC[C@@H]1[C@@H]2[C@@H](O)C[C@@]2(C)[C@H]1CC[C@]2(O)C(=O)CO [Hydrocortisone (Cortisol)]"
numeric_value = 105

[[record]]
molecule = "CC(C)c1cnn2c(NCc3ccccc3-n3cccn3)nc(OC3CCCNC3)nc12 (stereo unspecified)"
numeric_value = 0.54

[[record]]
molecule = "C[C@@H]1O[C@@H](OC[C@H]2O[C@@H](Oc3c(-c4ccc(O)c(O)c4)oc4cc(O)cc(O)c4c3=O)[C@H](O)[C@@H](O)[C@@H]2O)[C@H](O)[C@H](O)[C@H]1O [Rutin (Rutoside)]"
numeric_value = 108

[[record]]
molecule = "COc1cc(O)c2c(c1)C(=O)c1cc(C)cc(O)c1C2=O [Rheochrysidin (Physcione)]"
numeric_value = 98.4

[[record]]
molecule = "CC1=CC(=O)CC(C)(C)C1(O)/C=C/C(C)=C\\C(=O)O (stereo unspecified) [Abscisic Acid (Dormin)]"
numeric_value = 101

[[record]]
molecule = "Cc1ccc(C)c(OCCCC(C)(C)C(=O)O)c1 [Gemfibrozil (Lopid)]"
numeric_value = 107

[[record]]
molecule = "COc1ccc2c(c1)c(CC(=O)O)c(C)n2C(=O)c1ccc(Cl)cc1 [Indomethacin (Indocid, Indocin)]"
numeric_value = 110

[[record]]
molecule = "CCCc1nn(C)c2c(=O)[nH]c(-c3cc(S(=O)(=O)N4CCN(C)CC4)ccc3OCC)nc12 [Sildenafil Mesylate]"
numeric_value = 99

[[record]]
molecule = "c1nc2c(NC3CCCCC3)nc(Nc3ccc(N4CCOCC4)cc3)nc2[nH]1 [Reversine]"
numeric_value = 38

[[record]]
molecule = "CN1[C@@H]2CC[C@H]1C[C@@H](OC(=O)c1c[nH]c3ccccc13)C2 [Tropisetron]"
numeric_value = 87.4

